biological target: fructose-mediated bovine serum albumin (BSA) glycation (Bos taurus, UniProt P02769); assay: Antiglycation assay, fructose-mediated BSA glycation model; conditions: read-out: Antiglycation activity, inhibition (%)
Sequence (P02769 25-607): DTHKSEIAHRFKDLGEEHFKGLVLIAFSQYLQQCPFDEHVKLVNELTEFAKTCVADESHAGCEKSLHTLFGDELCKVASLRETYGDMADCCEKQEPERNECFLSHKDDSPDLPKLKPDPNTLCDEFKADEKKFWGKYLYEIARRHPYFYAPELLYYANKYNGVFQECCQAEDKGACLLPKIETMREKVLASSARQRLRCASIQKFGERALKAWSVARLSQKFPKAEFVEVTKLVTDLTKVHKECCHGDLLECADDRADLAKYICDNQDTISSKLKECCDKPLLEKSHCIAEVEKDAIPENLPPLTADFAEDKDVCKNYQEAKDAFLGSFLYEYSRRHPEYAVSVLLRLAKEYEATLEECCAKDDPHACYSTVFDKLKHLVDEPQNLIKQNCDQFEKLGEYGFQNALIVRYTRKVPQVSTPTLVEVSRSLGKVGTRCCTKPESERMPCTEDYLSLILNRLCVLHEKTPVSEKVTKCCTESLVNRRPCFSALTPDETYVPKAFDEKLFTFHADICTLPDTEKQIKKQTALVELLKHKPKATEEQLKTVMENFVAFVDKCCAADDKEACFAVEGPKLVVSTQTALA
ENDPOINT_LABEL: inhibition at 100 µM (%)
One number for each entry, in %.

Example results:
Memo: C[C@@H]1O[C@@H](Oc2c(-c3ccc(O)c(O)c3)oc3cc(O)cc(O)c3c2=O)[C@H](O)[C@H](O)[C@H]1O , reported inhibition at 100 µM: 94.3

Memo: C[C@@H]1O[C@@H](OC[C@H]2O[C@@H](Oc3c(-c4ccc(O)c(O)c4)oc4cc(O)cc(O)c4c3=O)[C@H](O)[C@@H](O)[C@@H]2O)[C@H](O)[C@H](O)[C@H]1O , reported inhibition at 100 µM: 91.5

// input: 3 compounds below; output: inhibition at 100 µM for each
1. O=C(O)c1ccc(O)c(Nc2cc(C(=O)O)ccc2O)c1
2. O=C(O)c1ccc(O)c(O)c1
3. O=C(O)[C@H]1O[C@@H](Oc2c(-c3ccc(O)c(O)c3)oc3cc(O)cc(O)c3c2=O)[C@H](O)[C@@H](O)[C@@H]1O

Reply:
1: 68.4; 2: 48.4; 3: 90

// input: 2 compounds below; output: inhibition at 100 µM for each
1. O=c1c(O)c(-c2ccc(O)c(O)c2)oc2cc(O)cc(O)c12
2. O=C(O)c1cc(O)c(O)c(O)c1

Reply:
84.3
8.42

----------
target: aldose reductase (AR) (Rattus norvegicus, UniProt P07943); construct: centrifuged at 10,000× g for 30 min at 4 °C (Centrifuge 5417R, Eppendorf, Germany) to obtain AR homogenate (in the supernatant); from tissue; host or cells: eye lenses of Sprague–Dawley rats; test: Aldose reductase (AR) inhibition assay, rat lens homogenate; assay type: biochemical, Sprague–Dawley rats; settings: 12.5 µM; read-out: AR inhibition activity, inhibition (%)
For each of the compounds below, state its inhibition at 12.5 µM.
Answers are plain numbers, in %.

Example results:
Memo: O=C(O)c1ccc(O)c(Nc2cc(C(=O)O)ccc2O)c1 , reported inhibition at 12.5 µM: 14.4

Memo: O=C(O)c1cc(O)c(O)c(O)c1 [Gallic acid (3), gallic acid] , reported inhibition at 12.5 µM: 4.16

Memo: O=C(O)C1=C[C@@H](O)[C@@H](O)[C@H](O)C1 [Shikimic acid (2), shikimic acid] , reported inhibition at 12.5 µM: 0.32

# ---- query compound ----
Memo: C[C@@H]1O[C@@H](OC[C@H]2O[C@@H](Oc3c(-c4ccc(O)c(O)c4)oc4cc(O)cc(O)c4c3=O)[C@H](O)[C@@H](O)[C@@H]2O)[C@H](O)[C@H](O)[C@H]1O [Rutin (8), rutin] , reported inhibition at 12.5 µM: 75.2

----------
molecular target: fructose-mediated bovine serum albumin (BSA) glycation (Bos taurus); test: Antiglycation assay, fructose-mediated BSA glycation model; conditions: read-out: Antiglycation activity, IC50; fructose-mediated BSA glycation
ENDPOINT_LABEL: IC50

Memo: Cl.N=C(N)NN [Aminoguanidine hydrochloride, aminoguanidine hydrochloride, reference compound] , reported IC50: 2180 µM

----------
Target: aldose reductase (AR) (Rattus norvegicus)
Construct: centrifuged at 10,000× g for 30 min at 4 °C (Centrifuge 5417R, Eppendorf, Germany) to obtain AR homogenate (in the supernatant); from tissue; host or cells: eye lenses of Sprague–Dawley rats
Experiment: Aldose reductase (AR) inhibition assay, rat lens homogenate
Type: biochemical, Sprague–Dawley rats
Conditions: 6.25 µM; read-out: AR inhibition activity, inhibition (%)
Procedure: For the extraction of AR, the rat eye lenses were grounded in a precooled mortar (−70 °C) and extracted using 0.1 M PBS (pH 6.2; about 0.5 mL of PBS per two frozen rat lenses). A 96-well plate-based AR inhibition assay was used in this study, which was modified from a previous method. In principle, the rate of the absorbance decrease of NADPH at 340 nm (OD340 nm) was used for evaluation of the AR inhibitory activity. […]
For each of the compounds below, state its inhibition at 6.25 µM.

Example results:
Memo: O=C(O)c1cc(O)c(O)c(O)c1 , reported inhibition at 6.25 µM: < 0%

Memo: C[C@@H]1O[C@@H](OC[C@H]2O[C@@H](Oc3c(-c4ccc(O)c(O)c4)oc4cc(O)cc(O)c4c3=O)[C@H](O)[C@@H](O)[C@@H]2O)[C@H](O)[C@H](O)[C@H]1O , reported inhibition at 6.25 µM: 62.8%

// input: 2 compounds below; output: inhibition at 6.25 µM for each
1. O=C(O)C1=C[C@@H](O)[C@@H](O)[C@H](O)C1
2. O=C(O)c1ccc(O)c(Nc2cc(C(=O)O)ccc2O)c1

Reply:
1. < 0%
2. 8.57%

----------
For each of the compounds below, state its inhibition at 25 µM.
target: fructose-mediated bovine serum albumin (BSA) glycation (Bos taurus); assay: Antiglycation assay, fructose-mediated BSA glycation model; settings: read-out: Antiglycation activity, inhibition (%)
Give bare numbers, in %.

Example results:
Memo: O=C(O)c1ccc(O)c(Nc2cc(C(=O)O)ccc2O)c1 , reported inhibition at 25 µM: 14.9

Memo: C[C@@H]1O[C@@H](Oc2c(-c3ccc(O)c(O)c3)oc3cc(O)cc(O)c3c2=O)[C@H](O)[C@H](O)[C@H]1O [Quercitrin (9), quercitrin] , reported inhibition at 25 µM: 75.2

Memo: C[C@@H]1O[C@@H](OC[C@H]2O[C@@H](Oc3c(-c4ccc(O)c(O)c4)oc4cc(O)cc(O)c4c3=O)[C@H](O)[C@@H](O)[C@@H]2O)[C@H](O)[C@H](O)[C@H]1O [Rutin (8), rutin] , reported inhibition at 25 µM: 61.7

Memo: O=C(O)[C@H]1O[C@@H](Oc2c(-c3ccc(O)c(O)c3)oc3cc(O)cc(O)c3c2=O)[C@H](O)[C@@H](O)[C@@H]1O [Miquelianin (7), miquelianin] , reported inhibition at 25 µM: 49.4

Memo: O=C(O)c1ccc(O)c(O)c1 [Protocatechuic acid (4), protocatechuic acid] , reported inhibition at 25 µM: 11.4

New cases:
Memo: O=c1c(O)c(-c2ccc(O)c(O)c2)oc2cc(O)cc(O)c12 [Quercetin (10), quercetin] , reported inhibition at 25 µM: 35.4

----------
target: fructose-mediated bovine serum albumin (BSA) glycation (Bos taurus, UniProt P02769); test: Antiglycation assay, fructose-mediated BSA glycation model; conditions: read-out: Antiglycation activity, inhibition (%)
For each of the compounds below, state its inhibition at 12.5 µM.
Numbers only, in %.

Example results:
Memo: O=C(O)c1ccc(O)c(O)c1 , reported inhibition at 12.5 µM: 5.26

Memo: C[C@@H]1O[C@@H](OC[C@H]2O[C@@H](Oc3c(-c4ccc(O)c(O)c4)oc4cc(O)cc(O)c4c3=O)[C@H](O)[C@@H](O)[C@@H]2O)[C@H](O)[C@H](O)[C@H]1O , reported inhibition at 12.5 µM: 30.8

Memo: O=c1c(O)c(-c2ccc(O)c(O)c2)oc2cc(O)cc(O)c12 , reported inhibition at 12.5 µM: 19.4

Memo: O=C(O)[C@H]1O[C@@H](Oc2c(-c3ccc(O)c(O)c3)oc3cc(O)cc(O)c3c2=O)[C@H](O)[C@@H](O)[C@@H]1O , reported inhibition at 12.5 µM: 24.9

# ---- query compound ----
Memo: C[C@@H]1O[C@@H](Oc2c(-c3ccc(O)c(O)c3)oc3cc(O)cc(O)c3c2=O)[C@H](O)[C@H](O)[C@H]1O , reported inhibition at 12.5 µM: 32.3

----------
target: fructose-mediated bovine serum albumin (BSA) glycation (Bos taurus, UniProt P02769); experiment: Antiglycation assay, fructose-mediated BSA glycation model; conditions: read-out: Antiglycation activity, inhibition (%)
Think of 70% as a floor: if inhibition at 50 µM stands on it or above, it is class 1; beneath it, class 0.

Example results:
Task item: # check: inhibition at 50 µM of O=C(O)[C@H]1O[C@@H](Oc2c(-c3ccc(O)c(O)c3)oc3cc(O)cc(O)c3c2=O)[C@H](O)[C@@H](O)[C@@H]1O [Miquelianin (7), miquelianin] is greater than or equal to 70%
Reply: class 1

Task item: # check: inhibition at 50 µM of O=c1c(O)c(-c2ccc(O)c(O)c2)oc2cc(O)cc(O)c12 [Quercetin (10), quercetin] is greater than or equal to 70%
Reply: class 0

Task item: # check: inhibition at 50 µM of C[C@@H]1O[C@@H](OC[C@H]2O[C@@H](Oc3c(-c4ccc(O)c(O)c4)oc4cc(O)cc(O)c4c3=O)[C@H](O)[C@@H](O)[C@@H]2O)[C@H](O)[C@H](O)[C@H]1O [Rutin (8), rutin] is greater than or equal to 70%
Reply: class 1

Task item: # check: inhibition at 50 µM of C[C@@H]1O[C@@H](Oc2c(-c3ccc(O)c(O)c3)oc3cc(O)cc(O)c3c2=O)[C@H](O)[C@H](O)[C@H]1O [Quercitrin (9), quercitrin] is greater than or equal to 70%
Reply: class 1

New cases:
Task item: # check: inhibition at 50 µM of O=C(O)C1=C[C@@H](O)[C@@H](O)[C@H](O)C1 [Shikimic acid (2), shikimic acid] is greater than or equal to 70%
Reply: class 0

Task item: # check: inhibition at 50 µM of O=C(O)c1ccc(O)c(O)c1 [Protocatechuic acid (4), protocatechuic acid] is greater than or equal to 70%
Reply: class 0

Task item: # check: inhibition at 50 µM of O=C(O)c1cc(O)c(O)c(O)c1 [Gallic acid (3), gallic acid] is greater than or equal to 70%
Reply: class 0

Task item: # check: inhibition at 50 µM of O=C(O)c1ccc(O)c(Nc2cc(C(=O)O)ccc2O)c1 is greater than or equal to 70%
Reply: class 0
